Data origin, for the record: patent US20190307908A1

Test: maximum PFC dissolved in ethanol
Type: physicochemical
Conditions: in ethanol (co-solvent)
Provide the reported maximum that could be dissolved in ethanol of each item.

Quick one: give measured maximum that could be dissolved in ethanol for FC(F)(F)C(F)(F)C(F)(F)C(F)(F)F
~2.5 % by volume

Quick one: give measured maximum that could be dissolved in ethanol for FC(F)(F)C(F)(F)C(F)(F)F
~2.7 % by volume

Quick one: give measured maximum that could be dissolved in ethanol for FC(F)(F)C(F)(F)C(F)(F)C(F)(F)C(F)(F)F
~2.3 % by volume
